We begin with a simple list: items and their reported Potency.
experiment: Cellular viability qHTS for adrenocortical cancer (ACC) cell line SW-13 (AID 1963989); details: SW-13 ACC cells viability, CellTiter-Glo, 48 h; note: nearly all actives have a fitted effect of over 65% in size; note: potency is the fitted concentration of half-maximal effect
Records with an inconclusive call do not appear. The source made the active and inactive calls. Calls come from the whole dose curve; as a rule, active = well fitted cell-killing curve with a large enough effect; inconclusive = small, poorly fitted or top-dose-only effect; inactive = flat fitted curve, though single readings scatter.

Examples with answers:
Prompt: Please look up its Potency: O=C(Nc1ccc2[nH]nc(-c3ccncc3)c2c1)[C@@H]1CCN(CC(=O)N2CCN(c3ccc(-c4ncccn4)cc3)CC2)C1
Completion: 4.47 µM (active)

Prompt: Dear colleague, I am looking for the recorded Potency of the following molecule: NC(=O)c1cccc2c(NC(CN3CCC3)c3ccc(Cl)c(C(F)(F)F)c3)ncnc12 (stereo not drawn)
Completion: 14.1 µM (active)

New cases:
Prompt: // query Potency value for entry Cc1cc(O)c(-c2ccc([C@@H](C)CN(C)C)cc2)c2c1[nH]c(=O)c1sccc12
Completion: 0.0891 µM (active)

Prompt: Which measured Potency value corresponds to CCc1ccc(C(=O)Nc2cc(CN3CCN(C)CC3)cc(C(F)(F)F)c2)cc1C#Cc1cnc2ccnn2c1 ?
Completion: 10 µM (active)

Prompt: Look up Potency for this molecule: C[C@H](NC(=O)c1sccc1OCc1ccc(Cl)cc1)c1ccccc1
Completion: 25.1 µM (active)

Prompt: Which Potency reading was recorded for the molecule COc1cc(NC(C)CCCN)c2ncccc2c1 (stereo not drawn) ?
Completion: 4.61 µM (active)

Prompt: Name the reported Potency value associated with the molecule CC(C)c1cnn2c(NCc3ccccc3)cc(N[C@@H](CO)[C@H](O)CO)nc12
Completion: 0.891 µM (active)

Prompt: Value lookup for Potency; key = C=CC(=O)Nc1cccc(Oc2nc(Nc3ccc(N4CCN(C)CC4)cc3)ncc2Cl)c1
Completion: 1.26 µM (active)

Prompt: Any idea what Potency was measured for CON(C)C(=O)N1N=C(c2cc(F)ccc2F)S[C@@]1(CCCN)c1ccccc1 ?
Completion: 0.0141 µM (active)

Prompt: Item O=C(Nc1ccc(OC(F)(F)Cl)cc1)c1cnc(N2CC[C@@H](O)C2)c(-c2ccn[nH]2)c1 has what recorded Potency?
Completion: 20 µM (active)

----------
Recorded activity (max response) values for a group of compounds are listed next.
experiment: Cellular viability qHTS for adrenocortical cancer (ACC) cell line SW-13 (AID 1963989); settings: SW-13 ACC cells viability, CellTiter-Glo, 48 h; active compounds read low; note: nearly all actives have a fitted effect of over 65% in size;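 for activity (max response): cells grown in serum-free medium with ITS supplement; % is set by controls: 0 for no effect and ±100 for the full control effect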
Inconclusive results are not listed. Activity calls are given as the source filed them. The call rests on the fitted dose curve; in most records, active means well fitted cell-killing curve with a large enough effect; inconclusive means small, poorly fitted or top-dose-only effect; inactive means flat fitted curve, though single readings scatter.

Solved entries (count: 2):
Prompt: Could you share which activity (max response) value was measured for COc1nccc(-c2c(-c3ccc(F)cc3)ncn2C2CCNCC2)n1 ?
Completion: -17.6% (inactive)

Prompt: Data request, read-out activity (max response), for CC(=O)Nc1ncc([N+](=O)[O-])s1
Completion: 10.5% (inactive)

New cases:
Prompt: What value of activity (max response) has been recorded for this entry: N=C(N)c1ccc2cc(OC(=O)c3ccc(N=C(N)N)cc3)ccc2c1
Completion: -32.1% (inactive)

Prompt: Name the reported activity (max response) value associated with the compound COCCOc1ccc(N2CCN(CCn3ncc4c3nc(N)n3nc(-c5ccco5)nc43)CC2)cc1
Completion: -19.9% (inactive)

Prompt: So what does the record say about activity (max response) for CCN(CC)CCNC(=O)c1cc(Br)c(N)cc1OC ?
Completion: -8.12% (inactive)

Prompt: Could you share which activity (max response) value was measured for C[N+](C)(C)CCCCCCCCCC[N+](C)(C)C ?
Completion: 14.5% (inactive)

Prompt: Requested field: activity (max response). Item: O=C(O)CCCCC1CCSS1 (stereo unspecified)
Completion: 9% (inactive)

Prompt: What does the record list as activity (max response) for COC1=C2C[C@H](C)C[C@H](OC)[C@H](O)[C@@H](C)/C=C(/C)[C@H](OC(N)=O)[C@@H](OC)/C=C\C=C(\C)C(=O)NC(=CC1=O)C2=O ?
Completion: -3.63% (inactive)

Prompt: Any idea what its activity (max response) is? The compound is CCOCCn1c(N2CCCN(C)CC2)nc2ccccc21
Completion: -8.77% (inactive)

Prompt: # activity (max response) lookup, item CCCCC(CC)CNC(=O)CC(C)OC(=O)CCC(=O)O (stereo unspecified)
Completion: -6.84% (inactive)

Prompt: May I ask what activity (max response) has been recorded for O=C(O)CCCCCCCC(=O)O ?
Completion: 10.6% (inactive)
